Test system: human umbilical vein endothelial cells (HUVEC)
assayComment: HUVEC proliferation assay
Format: cell-based
assaySetup: Homo sapiens, HUVEC, table following Table II (untitled); 10 nM; crude combinatorial library; read-out: % inhibition @ 10 nM
Please mark yes if the recorded inhibition at 0.01 µM is equal to or greater than 10%, and no if it falls below.

Problem: Hi, just wondering whether COc1cc(Nc2nc(N)c(-c3nc(-c4cc(NC(=O)C5CC[C@H]6CC(O)CC[C@@H](C5)C6)ccc4C)no3)s2)cc(OC)c1OC (stereo partly shown) shows inhibition at 0.01 µM of 10% or higher.
Solution: yes

Problem: Quick check, inhibition at 0.01 µM >= 10%? COc1cc(Nc2nc(N)c(-c3nc(-c4cc(NC(=O)C5CC(=O)OC5(C)C)ccc4C)no3)s2)cc(OC)c1OC (stereo not shown)
Solution: yes

Problem: # check: inhibition at 0.01 µM of "COc1cc(Nc2nc(N)c(-c3nc(-c4cc(NC(=O)c5ccc(C(C)=O)s5)ccc4C)no3)s2)cc(OC)c1OC" is greater than or equal to 10%
Solution: yes

Problem: Does inhibition at 0.01 µM meet or surpass 10% for CCC(C(=O)Nc1ccc(C)c(-c2noc(-c3sc(Nc4cc(OC)c(OC)c(OC)c4)nc3N)n2)c1)c1ccccc1C (stereo not shown) ?
Solution: yes

Problem: Has COc1cc(Nc2nc(N)c(-c3nc(-c4cc(NC(=O)C5CNC(=O)N5)ccc4C)no3)s2)cc(OC)c1OC (stereo not shown) a recorded inhibition at 0.01 µM greater than or equal to 10%?
Solution: no

Problem: Confirm if inhibition at 0.01 µM reported for the compound "COc1cc(Nc2nc(N)c(-c3nc(-c4cc(NC(=O)C5C(C)(C)C5(C)C)ccc4C)no3)s2)cc(OC)c1OC" is 10% or above.
Solution: yes

Problem: Check this compound for inhibition at 0.01 µM at or above 10%: "COc1cc(Nc2nc(N)c(-c3nc(-c4cc(NC(=O)CC(C)(C)NC(C)=O)ccc4C)no3)s2)cc(OC)c1OC"
Solution: no

Problem: Would you say "COc1cc(Nc2nc(N)c(-c3nc(-c4cc(NC(=O)[C@H]5CCCN5C(C)=O)ccc4C)no3)s2)cc(OC)c1OC" shows inhibition at 0.01 µM at minimum 10%?
Solution: no

Problem: Has "COc1cc(Nc2nc(N)c(-c3nc(-c4cc(NC(=O)C[C@@H]5OC(C)(C)OC5=O)ccc4C)no3)s2)cc(OC)c1OC" a recorded inhibition at 0.01 µM greater than or equal to 10%?
Solution: no

Problem: Evaluate "COc1cc(Nc2nc(N)c(-c3nc(-c4cc(NC(=O)c5cc(=O)cco5)ccc4C)no3)s2)cc(OC)c1OC" : inhibition at 0.01 µM at minimum 10%?
Solution: yes

Problem: Evaluate "COc1cc(Nc2nc(N)c(-c3nc(-c4cc(NC(=O)C5CCC(=O)CC5)ccc4C)no3)s2)cc(OC)c1OC" : inhibition at 0.01 µM at minimum 10%?
Solution: no

Problem: Determine whether this compound has inhibition at 0.01 µM no lower than 10%: "COc1cc(Nc2nc(N)c(-c3nc(-c4cc(NC(=O)c5cc(C)cc(=O)o5)ccc4C)no3)s2)cc(OC)c1OC"
Solution: yes

Problem: Does "COc1cc(Nc2nc(N)c(-c3nc(-c4cc(NC(=O)C(C)C)ccc4C)no3)s2)cc(OC)c1OC" have a reported inhibition at 0.01 µM of at least 10%?
Solution: no

Problem: Identify whether the reported inhibition at 0.01 µM of the following compound is 10% or greater: "COc1cc(Nc2nc(N)c(-c3nc(-c4cc(NC(=O)Cc5c(F)cccc5F)ccc4C)no3)s2)cc(OC)c1OC"
Solution: yes

Problem: # bool: inhibition at 0.01 µM of "COc1cc(Nc2nc(N)c(-c3nc(-c4cc(NC(=O)c5cc(C)nn5C)ccc4C)no3)s2)cc(OC)c1OC" >= 10%
Solution: yes

Problem: Given the entry "COc1cc(Nc2nc(N)c(-c3nc(-c4cc(NC(=O)c5cc(=O)[nH]c(=O)[nH]5)ccc4C)no3)s2)cc(OC)c1OC" , answer whether its inhibition at 0.01 µM meets or surpasses 10%.
Solution: no

Problem: Determine whether this compound has inhibition at 0.01 µM no lower than 10%: "COc1cc(Nc2nc(N)c(-c3nc(-c4cc(NC(=O)Cc5sc(S)nc5C)ccc4C)no3)s2)cc(OC)c1OC"
Solution: no

Problem: Answer whether inhibition at 0.01 µM of COc1cc(Nc2nc(N)c(-c3nc(-c4cc(NC(=O)C5C(C=C(C)C)C5(C)C)ccc4C)no3)s2)cc(OC)c1OC (stereo not shown) is greater than or equal to 10%.
Solution: no

Problem: Hi team, for "CCc1ccccc1C(=O)Nc1ccc(C)c(-c2noc(-c3sc(Nc4cc(OC)c(OC)c(OC)c4)nc3N)n2)c1" , is the recorded inhibition at 0.01 µM at or above 10%?
Solution: yes

Problem: Decide: inhibition at 0.01 µM of COc1cccc(C(=O)Nc2ccc(C)c(-c3noc(-c4sc(Nc5cc(OC)c(OC)c(OC)c5)nc4N)n3)c2)c1 [drawing 1122] >= 10%?
Solution: yes

Problem: Reported inhibition at 0.01 µM at or above 10%? "COc1cc(Nc2nc(N)c(-c3nc(-c4cc(NC(=O)CCc5ccc(C)cc5)ccc4C)no3)s2)cc(OC)c1OC"
Solution: yes

Problem: hey, is inhibition at 0.01 µM for this one >= 10%? COc1cc(Nc2nc(N)c(-c3nc(-c4cc(NC(=O)C5CCCO5)ccc4C)no3)s2)cc(OC)c1OC (stereo not shown)
Solution: yes

Problem: In plain terms: is recorded inhibition at 0.01 µM at least 10% for "COc1cc(Nc2nc(N)c(-c3nc(-c4cc(NC(=O)Cc5cc(F)ccc5F)ccc4C)no3)s2)cc(OC)c1OC" ?
Solution: yes

Problem: Form field: inhibition at 0.01 µM at least 10%? Entry: COc1cc(Nc2nc(N)c(-c3nc(-c4cc(NC(=O)CC5CCC6CCC5C6)ccc4C)no3)s2)cc(OC)c1OC (stereo not shown)
Solution: yes

Problem: Entry "C/C=C(\C)C(=O)Nc1ccc(C)c(-c2noc(-c3sc(Nc4cc(OC)c(OC)c(OC)c4)nc3N)n2)c1" : is its inhibition at 0.01 µM no less than 10%?
Solution: yes

Problem: Reported inhibition at 0.01 µM at or above 10%? "COc1cc(Nc2nc(N)c(-c3nc(-c4cc(NC(=O)C(=O)CC(C)C)ccc4C)no3)s2)cc(OC)c1OC"
Solution: yes

Problem: Is inhibition at 0.01 µM for COc1cc(Nc2nc(N)c(-c3nc(-c4cc(NC(=O)C5CC6C=CCC(C6)C5)ccc4C)no3)s2)cc(OC)c1OC (stereo not shown) at or above 10%?
Solution: yes

Problem: Please indicate if the recorded inhibition at 0.01 µM for "COc1cc(Nc2nc(N)c(-c3nc(-c4cc(NC(=O)C5CCN(C(C)=O)CC5)ccc4C)no3)s2)cc(OC)c1OC" meets or exceeds 10%.
Solution: yes

Problem: Entry COc1cc(Nc2nc(N)c(-c3nc(-c4cc(NC(=O)C5CCCC(OC)C5)ccc4C)no3)s2)cc(OC)c1OC (stereo not shown) : is its inhibition at 0.01 µM no less than 10%?
Solution: yes

Problem: Is inhibition at 0.01 µM at least 10%? Consider "COc1cc(Nc2nc(N)c(-c3nc(-c4cc(NC(=O)c5cc(C)n(C)n5)ccc4C)no3)s2)cc(OC)c1OC"
Solution: yes

Problem: Record "COc1cc(Nc2nc(N)c(-c3nc(-c4cc(NC(=O)[C@H](C)C(C)C)ccc4C)no3)s2)cc(OC)c1OC" ; criterion: inhibition at 0.01 µM no lower than 10%. Met?
Solution: no
